test-details: Antioxidant activity after menadione in healthy lymphoblasts
Format: cell-based, human
conditions: human, LH5 lymphoblast-derived cell line; LH5, 50 μM menadione; read-out: cell viability after menadione insult
reported-endpoint: viability at 3 h, 50 µM

**Query** For CC1=CC(=O)c2ccccc2C1=O [menadione, 2-methyl-1,4-naphthoquinone, reference compound] , what is its reported viability at 3 h, 50 µM?
**Result** ~40%

* * *

test-details: Antioxidant activity after menadione in healthy lymphoblasts
Assay type: cell-based, human
conditions: human, LH5 lymphoblast-derived cell line; LH5, 10 μM menadione; read-out: cell viability after menadione insult
reported-endpoint: viability at 3 h, 10 µM (%)
Note: unit % is implicit; provide only the numeric part.

**Query** For CC1=CC(=O)c2ccccc2C1=O [menadione, 2-methyl-1,4-naphthoquinone, reference compound] , what is its reported viability at 3 h, 10 µM?
**Result** 80
